test: CCTE_Harrill_HTTr_CellCount_MCF7: CCTE's Cell Proliferation Assessment for the High-Throughput Transcriptomics (HTTr) Platform, Harrill Lab (AID 2284012);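 note: count of Hoechst-stained nuclei per well by high-content imaging in MCF-7 cells; cells exposed to compound for six hours; intended direction is loss of nuclei count meaning fewer cells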
Records with an inconclusive call do not appear. Activity calls are given as the source filed them. Rule for the calls: active = hit-call score of the fitted dose curve at least 0.9, where 1 is the maximum; inconclusive = response in the unintended direction; inactive = score below 0.9.
outcome-measure: outcome

CCCOC(=O)c1ccc(C(=O)OCCC)nc1 : inactive
CN(C)C(=O)Nc1ccc(Cl)c(Cl)c1 : inactive
CC(C)CCCCCCc1ccc(O)cc1 : inactive
Cc1nn(C)c(Oc2ccccc2)c1C=NOCc1ccc(C(=O)OC(C)(C)C)cc1 : inactive
CCCCOC(=O)[C@@H](C)Oc1ccc(Oc2ccc(C(F)(F)F)cn2)cc1 : inactive
CC(=O)[C@H]1CC[C@H]2[C@@H]3CCC4=CC(=O)CC[C@]4(C)[C@H]3CC[C@]12C : inactive
COC(=O)c1ccccc1C(=O)O : inactive
CCCCCOC(=O)COc1cc(N2C(=O)C3=C(CCCC3)C2=O)c(F)cc1Cl : inactive
CCCN(CCC)C(=O)SCC : inactive
c1ccc2[nH]c(-c3cscn3)nc2c1 : inactive
CC(=O)S[C@@H]1CC2=CC(=O)CC[C@]2(C)[C@H]2CC[C@@]3(C)[C@@H](CC[C@@]34CCC(=O)O4)[C@H]12 : inactive

Values were extracted from PubChem BioAssay (EPA / NIEHS).
